Reference source for all entries: paper PMC8603191

Molecular target: human A2AAR (Homo sapiens, UniProt P29274)
Construct: expressed in transfected cells; host or cells: HEK293 (membrane preparations)
Sequence (P29274 whole entry): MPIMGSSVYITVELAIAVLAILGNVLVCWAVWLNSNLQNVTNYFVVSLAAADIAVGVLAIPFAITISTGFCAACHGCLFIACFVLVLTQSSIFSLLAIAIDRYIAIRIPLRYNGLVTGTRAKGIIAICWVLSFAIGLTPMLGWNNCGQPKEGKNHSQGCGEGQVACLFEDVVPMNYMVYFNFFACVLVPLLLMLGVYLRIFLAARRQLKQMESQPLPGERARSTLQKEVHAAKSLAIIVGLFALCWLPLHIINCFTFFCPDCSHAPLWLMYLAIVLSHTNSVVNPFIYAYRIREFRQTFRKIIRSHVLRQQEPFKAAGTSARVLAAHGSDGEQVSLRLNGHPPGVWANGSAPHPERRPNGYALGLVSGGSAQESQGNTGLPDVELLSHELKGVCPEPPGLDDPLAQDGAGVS
Test: Radioligand binding assay, displacement of [3H]ZM241385
Conditions: calculated from experimental binding affinities
endpoint.name: Free energy of binding (ΔG) A2AAR (kcal/mol)

{"columns": ["chemical.smiles", "target.desc", "Free energy of binding (ΔG) A2AAR (kcal/mol)"],
 "data": [
  ["COc1cccc2sc(NC(=O)c3ccccc3)nc12", "human A2AAR (Homo sapiens, UniProt P29274)", -9.6],
  ["CCC(=O)Nc1nc2ccccc2s1", "human A2AAR (Homo sapiens, UniProt P29274)", -7.1],
  ["O=C(Nc1nc2ccccc2s1)C1CCCCC1", "human A2AAR (Homo sapiens, UniProt P29274)", -7.5],
  ["O=C(Nc1nc2ccccc2s1)C1CCCC1", "human A2AAR (Homo sapiens, UniProt P29274)", -7.9],
  ["Cc1ccc2nc(NC(=O)C(C)(C)C)sc2c1", "human A2AAR (Homo sapiens, UniProt P29274)", -6.3],
  ["CC(C)(C)C(=O)Nc1nc2cc(C#N)ccc2s1", "human A2AAR (Homo sapiens, UniProt P29274)", -7.2],
  ["CC1(C(=O)Nc2nc3cc(C#N)ccc3s2)CCCC1", "human A2AAR (Homo sapiens, UniProt P29274)", -7.9],
  ["O=C(Nc1nc2ccccc2s1)C1CC1", "human A2AAR (Homo sapiens, UniProt P29274)", -7.5],
  ["CCc1ccc2sc(NC(=O)C(C)(C)C)nc2c1", "human A2AAR (Homo sapiens, UniProt P29274)", -7.5],
  ["COc1ccc2sc(NC(=O)C(C)(C)C)nc2c1", "human A2AAR (Homo sapiens, UniProt P29274)", -8.0],
  ["CC(C)(C)C(=O)Nc1nc2cc(Br)ccc2s1", "human A2AAR (Homo sapiens, UniProt P29274)", -8.4],
  ["CC(C)(C)C(=O)Nc1nc2cc(Cl)ccc2s1", "human A2AAR (Homo sapiens, UniProt P29274)", -8.1],
  ["CC(C)(C)C(=O)Nc1nc2ccccc2s1", "human A2AAR (Homo sapiens, UniProt P29274)", -8.0],
  ["Cc1ccc2sc(NC(=O)C3(C)CCCC3)nc2c1", "human A2AAR (Homo sapiens, UniProt P29274)", -8.6],
  ["COc1cccc2sc(NC(=O)C(C)(C)C)nc12", "human A2AAR (Homo sapiens, UniProt P29274)", -9.2],
  ["Cc1ccc2sc(NC(=O)C(C)(C)C)nc2c1", "human A2AAR (Homo sapiens, UniProt P29274)", -8.0],
  ["CC1(C(=O)Nc2nc3cc(Br)ccc3s2)CCCC1", "human A2AAR (Homo sapiens, UniProt P29274)", -8.8],
  ["CC1(C(=O)Nc2nc3ccccc3s2)CCCC1", "human A2AAR (Homo sapiens, UniProt P29274)", -8.6],
  ["CC1(C(=O)Nc2nc3cc(Cl)ccc3s2)CCCC1", "human A2AAR (Homo sapiens, UniProt P29274)", -9.1],
  ["CC(=O)Nc1nc2ccccc2s1", "human A2AAR (Homo sapiens, UniProt P29274)", -5.6],
  ["O=C(Nc1nc2ccccc2s1)c1ccccc1", "human A2AAR (Homo sapiens, UniProt P29274)", -8.8],
  ["O=C(Nc1nc2ccccc2s1)C12CC3CC(CC1C3)C2", "human A2AAR (Homo sapiens, UniProt P29274)", -7.8],
  ["CC(C)C(=O)Nc1nc2ccccc2s1", "human A2AAR (Homo sapiens, UniProt P29274)", -7.7]
]}

====

Target: human A1AR (Homo sapiens)
Construct: expressed in transfected cells; host or cells: HEK293 (membrane preparations)
Assay: Radioligand binding assay, displacement of [3H]DPCPX
Settings: A1AR
Method: Radioligand binding assays. HEK293 cells expressing the human A1- or A2AARs were cultured in DMEM supplemented with 10% fetal bovine serum, 100 Units/ml penicillin, 100 µg/ml streptomycin, and 2 µmol/ml glutamine. […] The suspension was then re-centrifuged at 20,000 g for 60 min at 4 °C. […] Nonspecific binding was determined using 100 µM of XAC. […] a K values are expressed as means ± SEM from (2-4) independent experiments. […]
endpoint.name: ligand efficiency (LE, binding free energy per heavy atom) (kcal mol^−1 HA^−1)

{"columns": ["compound", "unit.label", "value"],
 "data": [
  ["O=C(Nc1nc2ccccc2s1)C1CCCC1 [Compound 9]", "kcal mol^−1 HA^−1", 0.50],
  ["CC(=O)Nc1nc2ccccc2s1 [Compound 1]", "kcal mol^−1 HA^−1", 0.52],
  ["CC(C)(C)C(=O)Nc1nc2ccccc2s1 [Compound 5]", "kcal mol^−1 HA^−1", 0.56],
  ["CC(C)(C)C(=O)Nc1nc2cc(Br)ccc2s1 [Compound 15]", "kcal mol^−1 HA^−1", 0.60]
]}

====

Molecular target: human A1AR (Homo sapiens)
Construct: expressed in transfected cells; host or cells: HEK293 (membrane preparations)
Sequence (P30542 1-326): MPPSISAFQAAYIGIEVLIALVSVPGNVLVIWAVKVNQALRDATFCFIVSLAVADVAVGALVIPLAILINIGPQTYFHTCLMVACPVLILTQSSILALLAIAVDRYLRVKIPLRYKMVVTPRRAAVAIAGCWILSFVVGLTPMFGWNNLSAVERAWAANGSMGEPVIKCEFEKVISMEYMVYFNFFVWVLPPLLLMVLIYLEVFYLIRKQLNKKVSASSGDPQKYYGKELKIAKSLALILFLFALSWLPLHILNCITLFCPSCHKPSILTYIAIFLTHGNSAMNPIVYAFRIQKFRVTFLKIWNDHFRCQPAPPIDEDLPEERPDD
Assay: Radioligand binding assay, displacement of [3H]DPCPX
Details: calculated from experimental binding affinities
Description: Radioligand binding assays. HEK293 cells expressing the human A1- or A2AARs were cultured in DMEM supplemented with 10% fetal bovine serum, 100 Units/ml penicillin, 100 µg/ml streptomycin, and 2 µmol/ml glutamine. […] The suspension was then re-centrifuged at 20,000 g for 60 min at 4 °C. […] Nonspecific binding was determined using 100 µM of XAC. […] a K values are expressed as means ± SEM from (2-4) independent experiments. […]
endpoint.name: Free energy of binding (ΔG) A1AR (kcal/mol)

{"columns": ["chemical.smiles", "Free energy of binding (ΔG) A1AR (kcal/mol)"],
 "data": [
  ["CCC(CC)C(=O)Nc1nc2ccccc2s1", -8.2],
  ["CC(C)(C)C(=O)Nc1nc2cc(C#N)ccc2s1", -9.1],
  ["Cc1cccc2sc(NC(=O)C(C)(C)C)nc12", -8.2],
  ["Cc1ccc2sc(NC(=O)C(C)(C)C)nc2c1", -9.8],
  ["CC1(C(=O)Nc2nc3ccccc3s2)CCCC1", -9.6],
  ["COc1cccc2sc(NC(=O)C(C)(C)C)nc12", -9.4],
  ["O=C(Nc1nc2ccccc2s1)c1ccccc1", -8.5],
  ["CC(C)(C)C(=O)Nc1nc2ccccc2s1", -9.0],
  ["CC(C)C(=O)Nc1nc2ccccc2s1", -8.0],
  ["CCc1ccc2sc(NC(=O)C3(C)CCCC3)nc2c1", -9.6],
  ["CC(=O)Nc1nc2ccccc2s1", -6.8],
  ["CCc1ccc2sc(NC(=O)C(C)(C)C)nc2c1", -9.4],
  ["O=C(Nc1nc2ccccc2s1)C1CCCC1", -8.5],
  ["CC1(C(=O)Nc2nc3cc(C#N)ccc3s2)CCCC1", -9.9],
  ["COc1cccc2sc(NC(=O)c3ccccc3)nc12", -8.1],
  ["O=C(Nc1nc2ccccc2s1)C1CCCCC1", -8.2],
  ["CC(C)(C)C(=O)Nc1nc2cc(Br)ccc2s1", -10.2],
  ["CC(C)(C)C(=O)Nc1nc2cc(Cl)ccc2s1", -9.5],
  ["O=C(Nc1nc2ccccc2s1)C1CC1", -7.7],
  ["CC1(C(=O)Nc2nc3cc(Cl)ccc3s2)CCCC1", -10.5],
  ["CCC(=O)Nc1nc2ccccc2s1", -7.5],
  ["COc1ccc2sc(NC(=O)C(C)(C)C)nc2c1", -9.4],
  ["Cc1ccc2sc(NC(=O)C3(C)CCCC3)nc2c1", -9.9],
  ["CC1(C(=O)Nc2nc3cc(Br)ccc3s2)CCCC1", -11.0],
  ["O=C(Nc1nc2ccccc2s1)C12CC3CC(CC1C3)C2", -8.7]
]}

====

Target: human A2AAR (Homo sapiens, UniProt P29274)
Construct: expressed in transfected cells; host or cells: HEK293 (membrane preparations)
Test: Radioligand binding assay, displacement of [3H]ZM241385
Conditions: reference compound 9; based on Table S3

{"columns": ["compound", "ΔΔG Experimental A2AAR"],
 "data": [
  ["CCc1ccc2sc(NC(=O)C3(C)CCCC3)nc2c1 [Compound 24]", "0.2 ± 0.1 kcal/mol"],
  ["Cc1ccc2sc(NC(=O)C3(C)CCCC3)nc2c1 [Compound 23]", "–0.6 ± 0.1 kcal/mol"],
  ["CC1(C(=O)Nc2nc3cc(C#N)ccc3s2)CCCC1 [Compound 25]", "0.1 ± 0.3 kcal/mol"],
  ["CC1(C(=O)Nc2nc3ccccc3s2)CCCC1 [Compound 20]", "–0.6 ± 0.1 kcal/mol"]
]}
